# STUDY_SYSTEM: Proteasome Macropain subunit (Homo sapiens)
# PROTOCOL_SUMMARY: Inhibition of human 20S constitutive proteasome beta-2 at 50 uM using BocLRR-AMC as substrate incubated for 15 mins measured for 45 mins by fluorescence assay relative to control
Activity calls are given as the source filed them. The rule behind the calls is not given here.
READOUT: inhibition

Check out these entries, answers already filled in.
* C[C@H](NC(=O)OCc1ccccc1)C(=O)N[C@@H](C[C@]1(O)C(=O)Nc2ccccc21)C(=O)NCc1ccccc1 | inactive
* CNC(=O)[C@H](C[C@]1(O)C(=O)Nc2ccccc21)NC(=O)[C@H](C)NC(=O)[C@H](Cc1ccc(OCc2ccccc2)cc1)NC(=O)OC(C)(C)C | 36%
* CC(C)(C)OC(=O)NCCCC[C@H](NC(=O)[C@H](Cc1ccc(OCc2ccccc2)cc1)NC(=O)OC(C)(C)C)C(=O)N[C@@H](C[C@]1(O)C(=O)Nc2ccccc21)C(=O)NCc1ccccc1 | inactive
* C[C@H](O)[C@@H](NC(=O)[C@H](Cc1ccc(OCc2ccccc2)cc1)NC(=O)OC(C)(C)C)C(=O)N[C@@H](C[C@]1(O)C(=O)Nc2ccccc21)C(=O)NCc1ccccc1 | > 85%
* CC(C)c1ccc(CNC(=O)[C@H](C[C@]2(O)C(=O)Nc3ccccc32)NC(=O)[C@H](C)NC(=O)[C@H](Cc2ccc(OCc3ccccc3)cc2)NC(=O)OC(C)(C)C)cc1 | inactive
* C[C@H](NC(=O)[C@H](Cc1ccc(OCc2ccccc2)cc1)NC(=O)OC(C)(C)C)C(=O)N[C@@H](C[C@]1(O)C(=O)Nc2ccccc21)C(=O)NC(c1ccccc1)c1ccccc1 | 30%
* COc1ccc(C[C@H](NC(=O)[C@H](C)NC(=O)CN2CCOCC2)C(=O)N[C@@H](Cc2ccccc2)C(=O)[C@@]2(C)CO2)cc1 | > 85%
* C[C@H](NC(=O)[C@H](Cc1ccc(OCc2ccccc2)cc1)NC(=O)OC(C)(C)C)C(=O)N[C@@H](C[C@]1(O)C(=O)Nc2ccccc21)C(=O)NCCC(=O)O | > 85%
* CNC(=O)[C@H](C[C@@]1(O)C(=O)Nc2ccccc21)NC(=O)[C@H](C)NC(=O)[C@H](Cc1ccc(OCc2ccccc2)cc1)NC(=O)OC(C)(C)C | 13%
* C[C@H](NC(=O)[C@H](Cc1ccc(O)cc1)NC(=O)OC(C)(C)C)C(=O)N[C@@H](C[C@]1(O)C(=O)Nc2ccccc21)C(=O)NCc1ccccc1 | 19%

Q: Give me measured inhibition, please, for this molecule: C[C@H](NC(=O)[C@H](Cc1ccc(OCc2ccccc2)cc1)NC(=O)OC(C)(C)C)C(=O)N[C@@H](C[C@@]1(O)C(=O)N(C)c2ccccc21)C(=O)NCc1ccccc1
Ans: 56%

Q: Fill in inhibition for record C[C@H](NC(=O)[C@H](Cc1ccc(OCc2ccccc2)cc1)NC(=O)OC(C)(C)C)C(=O)N[C@@H](C[C@]1(O)C(=O)Nc2ccccc21)C(=O)NCC1CCCCC1
Ans: > 85%

Q: Assign inhibition to the following record: C[C@H](NC(=O)[C@H](Cc1ccc(OCc2ccccc2)cc1)NC(=O)OC(C)(C)C)C(=O)N[C@@H](C[C@]1(O)C(=O)Nc2ccccc21)C(=O)NCCc1ccccc1
Ans: 45%

Q: Please give the documented inhibition of C[C@H](NC(=O)[C@H](Cc1ccc(OCc2ccccc2)cc1)NC(=O)OC(C)(C)C)C(=O)N[C@@H](C[C@]1(O)C(=O)Nc2ccccc21)C(=O)NCc1cccc2ccccc12
Ans: > 85%

Q: Report measured inhibition; entry is C[C@@H](O)[C@@H](NC(=O)c1ccc(OCc2ccccc2)cc1)C(=O)N[C@@H](C[C@]1(O)C(=O)Nc2ccccc21)C(=O)NCc1ccccc1
Ans: > 85%

Q: Identify the reported inhibition for the following entry. C[C@H](NC(=O)[C@H](Cc1ccc(OCc2ccccc2)cc1)NC(=O)OC(C)(C)C)C(=O)N[C@@H](C[C@]1(O)C(=O)Nc2ccccc21)C(=O)NCC(C)(C)C
Ans: > 85%

Q: Read the entry C[C@H](NC(=O)Cc1cccc(Oc2ccccc2)c1)C(=O)N[C@@H](C[C@]1(O)C(=O)Nc2ccccc21)C(=O)NCc1ccccc1 and write its reported inhibition.
Ans: > 85%

Q: Supply inhibition value. Item: CC(C)(C)OC(=O)N[C@@H](Cc1ccc(OCc2ccccc2)cc1)C(=O)NCC(=O)N[C@@H](C[C@]1(O)C(=O)Nc2ccccc21)C(=O)NCc1ccccc1
Ans: > 85%

Q: Answer with reported inhibition of NC(=O)C[C@H](NC(=O)OCc1ccccc1)C(=O)N[C@@H](C[C@]1(O)C(=O)Nc2ccccc21)C(=O)NCc1ccccc1
Ans: inactive

Q: Identify measured inhibition corresponding to NCCCC[C@H](NC(=O)[C@@H](N)Cc1ccc(OCc2ccccc2)cc1)C(=O)N[C@@H](C[C@]1(O)C(=O)Nc2ccccc21)C(=O)NCc1ccccc1
Ans: > 85%

Q: Supply reported inhibition belonging to this molecule: C[C@H](NC(=O)[C@@H](N)Cc1ccc(OCc2ccccc2)cc1)C(=O)N[C@@H](C[C@]1(O)C(=O)Nc2ccccc21)C(=O)NCc1ccccc1
Ans: > 85%

Q: Give the value of inhibition reported for the following: C[C@H](NC(=O)[C@H](Cc1ccc(OCc2ccccc2)cc1)NC(=O)OC(C)(C)C)C(=O)N[C@@H](C[C@]1(O)C(=O)Nc2ccccc21)C(=O)NCCC1CCCCC1
Ans: 36%

Q: Please report inhibition for the following molecule: C[C@H](NC(=O)[C@H](Cc1ccc(OCc2ccccc2)cc1)NC(=O)OC(C)(C)C)C(=O)N[C@@H](C[C@]1(O)C(=O)Nc2ccccc21)C(=O)NCc1ccc(-c2ccccc2)cc1
Ans: inactive

Q: Supply recorded inhibition for C[C@H](O)[C@@H](NC(=O)OCc1ccccc1)C(=O)N[C@@H](C[C@]1(O)C(=O)Nc2ccccc21)C(=O)NCc1ccccc1 here.
Ans: inactive
